Would you mind telling me the reported apparent KD of MS2 coat protein of each entry?
Test system: MS2 coat protein
Assay: apparent KD of MS2 coat protein; designed switch direction (-1 OFF switch, 1 ON switch): 1; higher = weaker reporter binding
Conditions: input ligand: FMN 200 uM
Give bare numbers, in µM.

Need apparent KD of MS2 coat protein, item CGCGCUCCGGUAGGAUAUGAGGUGCCGUAGGGACCCGCCUACGGACAUGAGGAUCACCCAUGUCCUCAGAAGGACCGGGCGUGA [Soenonorma] (Eterna round: R96, puzzle: Same State NG 2)
0.0151

Need apparent KD of MS2 coat protein, item GGAGCCGGCCUAGGAUAUUUCAUAAAAAGACAUGAGGAUCACCCAUGUAGGCCAGAAGGCCUUGGGAAGAAGGAGGUCGGCUCC [Loop Effect - G29] (Eterna round: R96, puzzle: Same State NG 2)
0.0208

Each sequence below has a recorded value; state its apparent KD of MS2 coat protein.
1. GGACGUCGAUAAUAUAACUUCACAUGAGGAUCACCCAUGUCACAGGAUAUGGAUCCUAAUUGGAUCCAGAAGGGUGCGACGUCC [Fiskers NG3ss - 36] (Eterna round: R96, puzzle: Same State NG 3)
2. GUAGCAUACCGAGGAUAUUCAUAUUAUACAUGAGGAUCACCCAUGUAAGGCCGAUUACGGCCUUGGGAGAAGGCGGAAUGCUAC [Xeonanis - 20 Mod21] (Eterna round: R96, puzzle: Same State NG 2)
3. UGGUACAUGGGAGGAUAUGGAGUGAUGACAUGAGGAUCACCCAUGUUAUUUAUGCCGAGAGGCAACUAGAAGGCCCAUGUACCU [JL SSNG1 3.96] (Eterna round: R96, puzzle: Same State NG 2)
4. GGAAACAAGAGAGGAUAUGCAGAGGAUCACCCUGCAGAAGGCUCCCUAGAGAGGAUAUGCAGAGGAUCACCCUGCAGAAGGCUC [pwkr ssNG DX.25] (Eterna round: R96, puzzle: Same State NG 1)
5. UGUCGUUGCAGAGGAUAUGGGAACUCGAUGCCGUAAGGUAUCAUAACAUGAGGAUCACCCAUGUCCCAGAAGGCUGCAGCAAGC [Leatve Mod] (Eterna round: R96, puzzle: Same State NG 2)
6. CUUUAUCACUAUACAUGAGGAUCACCCAUGUUAUCAUCAUGAGAGGAUAUCGUAAUAGGAUUUUUCGAGAAGGCUCUAAAGUAU [JR_SSNG3_Sub078] (Eterna round: R96, puzzle: Same State NG 3)
7. GCGUUUAACGUAGGAUAUCGACCUACAUGAGGAUCACCCAUGUCUUUGUAAAGUUUUUUUAAUUACGAGAAGGACGUUUUGCAU [JR_SSNG2_Sub071] (Eterna round: R96, puzzle: Same State NG 2)

0.0207
0.0189
0.0167
0.00446
0.0297
0.0521
0.0403

----------
Test system: MS2 coat protein
Assay: apparent KD of MS2 coat protein; designed switch direction (-1 OFF switch, 1 ON switch): -1; higher = weaker reporter binding
Conditions: input ligand: none
Would you mind telling me the reported apparent KD of MS2 coat protein of each entry?
Give bare numbers, in nM.

Please review the entries below; each comes with its answer.
Need apparent KD of MS2 coat protein, item GUCAGCUCGUGAGGAUAUACAUGAGGAUCACCCAUGUGAUCAAUAGCAGCUUCGGCUGCAUUAAUGUAGAAGGCACGAGCUGAU [ENG2/5-A2] (Eterna round: R96, puzzle: Exclusion NG 2)
203

Need apparent KD of MS2 coat protein, item UUUGCAAGCUUAUGAUCCCACAUGAGGAUCACCCAUGUUCCUGGCCGUGAGGCUAGGAUAACAUAUGCUCGUCUUAU [JL TOV1 3.64] (Eterna round: R97, puzzle: Sensor, turn-off variant 1)
814

Please look at the following sequence next.
Need apparent KD of MS2 coat protein, item ACAUUUGUAGAGGAUAUCAAGCCCAGGCUCCGUUGAGAAGGUUACACAUGAGGAUCACCCAUGUCCUCCUUACC [Eternabot (L1) Solution 4] (Eterna round: R97, puzzle: Exclusion 6)
162

----------
Tested on: MS2 coat protein
Test: apparent KD of MS2 coat protein; designed switch direction (-1 OFF switch, 1 ON switch): 1; higher = weaker reporter binding
Conditions: Eterna round: R95; input ligand: none
Decision: apparent KD of MS2 coat protein compared against 500 nM; not below it gives YES, below it gives NO.

Here are 8 sequences together with their reported answers.
Has AACAAUCUAUCUGAGGAUAUCAUGAAAUAUACAUGAGGAUCACCCAUGUGCAGGAAAACUGCAUAUGAGAAGGCAGAUAGAUUGA [salish99_ss2_r3_034] (puzzle: Same State 2) a recorded apparent KD of MS2 coat protein greater than or equal to 500 nM?
YES

Has GUUAAACAUGAGGAUCACCCAUGUCAUCUAAGUCGAGGAUAUGGGAAUUAAUUAAUUAAACCAGAAGGCGAAAAUU [Mat - Same State 1 - D95] (puzzle: Same State 1) a recorded apparent KD of MS2 coat protein greater than or equal to 500 nM?
YES

Has UGUCCAGCCUGAGCUGGACAAAAGCAUGUACAUGAGGAUCACCCAUGUUCAUGUACAAGCUUUUUGCUCGUCUUAAG [salish99_208a_r3_032] (puzzle: Sensor for hsa-mir-208a) a recorded apparent KD of MS2 coat protein greater than or equal to 500 nM?
YES

Has AUAAAACAUGAGGAUCACCCAUGUCAACAAAGUCUAGGAUAUGGGCAAAUAAAAUAAGAACCAGAAGGCGAAUAAU [salish99_ss1_r3_051] (puzzle: Same State 1) a recorded apparent KD of MS2 coat protein greater than or equal to 500 nM?
NO

Has GUGUGUUGCGGGCAGGAUAUGUACUUGAGUACAUGAGGAUCACCCAUGUGCGCCUGUUUCAGGCGACAGAAGGGCCUAUCGCGAC [JL-ss2-3.26 ViennaUCT mod] (puzzle: Same State 2) a recorded apparent KD of MS2 coat protein greater than or equal to 500 nM?
YES

Has UACAAUCUAUCUGAGGAUAUCAUGCAUUACACAUGAGGAUCACCCAUGUGCAGGAAAACUGCAUAUGAGAAGGCAGAUAGAUUGU [salish99_ss2_r3_066] (puzzle: Same State 2) a recorded apparent KD of MS2 coat protein greater than or equal to 500 nM?
NO

Has GAUAGACAUGAGGAUCACCCAUGUGACAAAACCACAGGAUAUCACACAGGAGUAACUGCGUGAGAAGGGUGAGACU [Edatinti] (puzzle: Same State 1) a recorded apparent KD of MS2 coat protein greater than or equal to 500 nM?
NO

Has AGUCCAGCCUGAGCUGGACAAAAGCAUGUACAUGAGGAUCACCCAUGUUCAUGUACAAGCUUUUUGCUCGUCUAAAA [Mat - hsa-mir-208a - Mod of JL - 50] (puzzle: Sensor for hsa-mir-208a) a recorded apparent KD of MS2 coat protein greater than or equal to 500 nM?
YES

Others:
Has ACAAGCUUUUUGCUCAUCUUAUGUCCGAAACAUGAGGAUCACCCAUGUAUAGAUUAUGUGUUGUUGUAGAUACAAGA [JR_SHM208A_Sub063] (puzzle: Sensor for hsa-mir-208a) a recorded apparent KD of MS2 coat protein greater than or equal to 500 nM?
NO

Has CGUCCGGCCUGUGCUGGCCGGUAGCAUGUACAUGAGGAUCACCCAUGUUCAUGUGCAGGCUUUUUGCUCGUCUUGUG [salish99_mir208a_r3_007] (puzzle: Sensor for hsa-mir-208a) a recorded apparent KD of MS2 coat protein greater than or equal to 500 nM?
NO

----------
Test system: MS2 coat protein
Assay: apparent KD of MS2 coat protein; designed switch direction (-1 OFF switch, 1 ON switch): 1; higher = weaker reporter binding
Settings: input ligand: microRNA oligo, concentration not stated
Decision: apparent KD of MS2 coat protein compared against 0.08 µM; not below it gives Fulfilled, below it gives Not fulfilled.

Here are 3 sequences together with their reported answers.
Has GGAGCCGGCCUAGGAUAUUUCAUAUAAAAACAUGAGGAUCACCCAUGUAGGCCAGAAGGCCUUGGGAAGAAGGAGGUCGGCUCC [Loop Effect - U25] (Eterna round: R96, puzzle: Same State NG 2) a recorded apparent KD of MS2 coat protein greater than or equal to 0.08 µM?
Not fulfilled

Has AAUAUAUUAAGUGAGGAUAUCAUAGAAAAAACAUGAGGAUCACCCAUGUGGGAAACCUGGUCGGGUGAGAAGGCACUUAAUAUAU [Samwise Clockwise 29 - Jieux - Same State 2] (Eterna round: R96, puzzle: Same State 2) a recorded apparent KD of MS2 coat protein greater than or equal to 0.08 µM?
Fulfilled

Has AUAUGAGGAGCAGGAUAUGCGGAGAAGAAAGAAGCAGAAGGGCUCAUGGGACAACAUGAGGAUCACCCAUGUUCUCCGCGAUGA [AK SSNG1-V2-3.2] (Eterna round: R96, puzzle: Same State NG 1) a recorded apparent KD of MS2 coat protein greater than or equal to 0.08 µM?
Fulfilled

Others:
Has UUUAGAUUCAGAGGAUAUUGAUGUUGUAUUUUACAAGAAGGCUGAUUGGUUUGAAAUGUUAUUAAACAUGAGGAUCACCCAUGU [JR_SSNG1_Sub012] (Eterna round: R96, puzzle: Same State NG 1) a recorded apparent KD of MS2 coat protein greater than or equal to 0.08 µM?
Not fulfilled

Has GAGUAGUUGAAAGGAUAUUGAUUGUUGUAGGAUCAAGAAGGUUCUAACAUGAGGAUCACCCAUGUAGGACUAUUCCUGUGUAUC [Parity 86 - Jieux - Same State NG 1] (Eterna round: R96, puzzle: Same State NG 1) a recorded apparent KD of MS2 coat protein greater than or equal to 0.08 µM?
Not fulfilled

Has UCGAGCGUACUUGCAGACAUGAGGAUCACCCAUGUAAAUGGGAAGGAUAUGGUACCGUUUCGGUACCAGAAGGUCCUAAGUGCU [salish99_SSNG3_r04_304] (Eterna round: R96, puzzle: Same State NG 3) a recorded apparent KD of MS2 coat protein greater than or equal to 0.08 µM?
Fulfilled

Has CUGAGAAGUCAAGGAUAUCACGUCGAUUAGACGUGAGAAGGUGAUCAUUACAUGAGGAUCACCCAUGUGUUACAUGGAGCUCAG [Brourd's SSNG1/1-A2 mod 6] (Eterna round: R96, puzzle: Same State NG 1) a recorded apparent KD of MS2 coat protein greater than or equal to 0.08 µM?
Fulfilled

Has GCUAGAAUUAAUGCCAACAUGAGGAUCACCCAUGUAUGUUGGCAGGAUAUCGUUUGCUUUGCAAACGAGAAGGGCUAAACUAGC [JL SSNG3 1.03] (Eterna round: R96, puzzle: Same State NG 3) a recorded apparent KD of MS2 coat protein greater than or equal to 0.08 µM?
Fulfilled
